test: in vitro; conditions: human, serum
Where a SMILES comes first, the peptide text is derived from it. Bridges are numbered along the chain shown (N, C = ends). [ ]: non-standard residue; d: D form. NMeF = CN[C@@H](Cc1ccccc1)C(=O)O; NMeS = CN[C@@H](CO)C(=O)O; Sar = CNCC(=O)O

COMPOUND: CC(C)[C@@H]1NC(=O)[C@H]([C@@H](C)O)NC(=O)[C@H](Cc2ccc(O)cc2)NC(=O)[C@H](Cc2c[nH]cn2)NC(=O)[C@H](CO)N(C)C(=O)[C@H](CO)NC(=O)[C@H](Cc2ccccc2)N(C)C(=O)[C@H](Cc2ccccc2)N(C)C(=O)[C@H](CC(=O)O)NC(=O)CN(C)C(=O)[C@H]([C@@H](C)O)NC(=O)[C@H](Cc2c[nH]c3ccccc23)NC(=O)CSC[C@@H](C(N)=O)NC(=O)[C@H](CCCNC(=N)N)NC(=O)[C@@H]2CCCN2C1=O [iHA-100] ({CH2CO}-WT[Sar]D[NMeF][NMeF]S[NMeS]HYTVPRC-NH2; thioether N-15)
half-life: ~3.85 h
